- Assay Target: human serotonin 5-HT2c receptor (Homo sapiens)
- Construct: expressed in transfected cells; host or cells: CHO cells (membrane homogenate)
- Sequence (P28335 33-458): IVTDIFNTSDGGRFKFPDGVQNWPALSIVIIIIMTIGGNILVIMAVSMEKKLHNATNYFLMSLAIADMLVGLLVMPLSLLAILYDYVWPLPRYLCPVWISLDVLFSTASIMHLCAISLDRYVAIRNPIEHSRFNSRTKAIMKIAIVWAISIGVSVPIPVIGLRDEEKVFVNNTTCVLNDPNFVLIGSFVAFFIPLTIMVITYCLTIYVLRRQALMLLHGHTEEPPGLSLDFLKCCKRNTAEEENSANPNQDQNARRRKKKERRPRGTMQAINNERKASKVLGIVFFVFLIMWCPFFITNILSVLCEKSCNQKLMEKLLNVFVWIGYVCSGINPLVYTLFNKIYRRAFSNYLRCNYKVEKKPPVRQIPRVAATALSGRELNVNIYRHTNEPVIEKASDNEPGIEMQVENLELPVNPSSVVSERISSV
- Protocol Text: Human 5-HT2C receptor radioligand binding assay (agonist site, [125I](±)DOI)
- Measurement Context: membranes of transfected CHO cells, 0.2 nM [125I](±)DOI, 15 minutes at 37° C.

[
  {
    "Compound": "Brc1ccc2c(c1)NCCC1CNCCN21 (stereo not shown)",
    "Ki (µM)": 0.14
  },
  {
    "Compound": "O=C1CC2CNCCN2c2cc(C(F)(F)F)ccc2N1 (stereo not shown)",
    "Ki (µM)": 0.087
  },
  {
    "Compound": "O=C1NCC2CNCCN2c2ccc(NS(=O)(=O)c3ccccc3)cc21 (stereo not shown)",
    "Ki (µM)": 27
  },
  {
    "Compound": "O=C1CC2CNCCN2c2ccc3ccccc3c2N1 (stereo not shown)",
    "Ki (µM)": 0.034
  },
  {
    "Compound": "O=C1C[C@H]2CNCCN2c2cc(CCc3ccccc3)ccc2N1",
    "Ki (µM)": 0.00071
  },
  {
    "Compound": "O=C1CC2CNCCN2c2cc(/C=C/c3ccc(Cl)cc3)ccc2N1 (stereo not shown)",
    "Ki (µM)": 0.013
  },
  {
    "Compound": "Clc1ccc2c(c1)N1CCNCC1CCN2 (stereo not shown)",
    "Ki (µM)": 0.018
  },
  {
    "Compound": "O=C1CC2CNCCN2c2c(F)cccc2N1 (stereo not shown)",
    "Ki (µM)": 0.042
  },
  {
    "Compound": "O=C1CC2CNCCN2c2cc(-c3ccccc3Cl)ccc2N1 (stereo not shown)",
    "Ki (µM)": 0.14
  },
  {
    "Compound": "Clc1cccc(CN2CCC3CNCCN3c3ccccc32)c1 (stereo not shown)",
    "Ki (µM)": 0.085
  }
]

----------
- Assay Target: UniProt P28335
- Protocol Text: Human 5-HT2C functional assay in CHO-K1 cells (calcium flux, FLIPR)
- Format: cell-based
- Set-up: expressed in transfected cells; host or cells: CHO-K1 cells
- Measurement Context: CHO-K1 cells over-expressing 5HT2C, calcium flux; read-out: EC50 (μM), 5-HT2c Agonist Activity
- Procedure: (iii) Human 5-HT2C and 5-HT2B Functional Assay in CHO-K1 Cells […] Fluorescence measurements were read at 25° C. at an excitation wavelength of 480 nm and an emission wavelength of 530 nm in FLIPR (MDS). Baseline fluorescence was measured for the first 10 seconds and then 15 μL of 4× concentrations of serotonin/test compounds was added to the cell plate. The fluorescence intensity was captured every second for the first 1 minute followed by every 5 seconds for an additional 2 minutes. […]
Consider the cut-off 0.007 µM. If the recorded EC50 is strictly smaller, the label is condition met; if not, the label is condition not met.

[
  {
    "Compound": "O=C1C[C@H]2CNCCN2c2cc(OCCc3cccc(C(F)(F)F)c3)ccc2N1",
    "Category": "condition met"
  },
  {
    "Compound": "O=C1CC2CNCCN2c2cc(-c3cccc(C(F)(F)F)c3)ccc2N1 (stereo not drawn)",
    "Category": "condition not met"
  },
  {
    "Compound": "C[C@H](Cc1ccccc1)Oc1ccc2c(c1)N1CCNCC1CC(=O)N2 (stereo partly drawn)",
    "Category": "condition met"
  },
  {
    "Compound": "c1cc(-c2ccsc2)c2c(c1)N1CCNC[C@@H]1CCO2",
    "Category": "condition met"
  },
  {
    "Compound": "O=C1CC2CNCCN2c2cc(-c3ccccc3F)ccc2N1 (stereo not drawn)",
    "Category": "condition not met"
  },
  {
    "Compound": "Cc1cccc(CCOc2ccc3c(c2)N2CCNC[C@@H]2CC(=O)N3)c1",
    "Category": "condition met"
  },
  {
    "Compound": "Cc1ccccc1-c1ccc2c(c1)N1CCNC[C@@H]1CCO2",
    "Category": "condition not met"
  },
  {
    "Compound": "O=C1CC2CNCCN2c2cc(-c3cnc4ccccc4c3)ccc2N1 (stereo not drawn)",
    "Category": "condition not met"
  }
]

----------
- Assay Target: human serotonin 5-HT2c receptor (Homo sapiens)
- Construct: expressed in transfected cells; host or cells: CHO cells (membrane homogenate)
- Protocol Text: Human 5-HT2C receptor radioligand binding assay (agonist site, [125I](±)DOI)
- Measurement Context: membranes of transfected CHO cells, 0.2 nM [125I](±)DOI, 15 minutes at 37° C.
Consider the cut-off 0.04 µM. If the recorded Ki is strictly smaller, the label is 1 (yes); if not, the label is 0 (no).

[
  {
    "Compound": "O=C1NCC2CNCCN2c2ccccc21 (stereo not drawn)",
    "Assay Target": "human serotonin 5-HT2c receptor (Homo sapiens)",
    "Category": "1 (yes)"
  },
  {
    "Compound": "CCOc1ccc2c(c1)N1CCNCC1CC(=O)N2 (stereo not drawn)",
    "Assay Target": "human serotonin 5-HT2c receptor (Homo sapiens)",
    "Category": "0 (no)"
  },
  {
    "Compound": "CN1CCN2c3ccccc3NC(=O)CC2C1 (stereo not drawn)",
    "Assay Target": "human serotonin 5-HT2c receptor (Homo sapiens)",
    "Category": "0 (no)"
  },
  {
    "Compound": "O=C1CC2CNCCN2c2cccc(F)c2N1 (stereo not drawn)",
    "Assay Target": "human serotonin 5-HT2c receptor (Homo sapiens)",
    "Category": "0 (no)"
  },
  {
    "Compound": "O=C1CC2CNCCN2c2cc(/C=C/c3ccc(F)cc3F)ccc2N1 (stereo not drawn)",
    "Assay Target": "human serotonin 5-HT2c receptor (Homo sapiens)",
    "Category": "1 (yes)"
  },
  {
    "Compound": "O=C1CC2CNCCN2c2cc(CCc3ccccc3)ccc2N1 (stereo not drawn)",
    "Assay Target": "human serotonin 5-HT2c receptor (Homo sapiens)",
    "Category": "1 (yes)"
  },
  {
    "Compound": "Cc1cccc2c1NC(=O)CC1CNCCN21 (stereo not drawn)",
    "Assay Target": "human serotonin 5-HT2c receptor (Homo sapiens)",
    "Category": "1 (yes)"
  },
  {
    "Compound": "O=C1C[C@H]2CNCCN2c2cc(Cl)c(Cl)cc2N1",
    "Assay Target": "human serotonin 5-HT2c receptor (Homo sapiens)",
    "Category": "1 (yes)"
  },
  {
    "Compound": "O=C1CC2CNCCN2c2c(Br)cccc2N1 (stereo not drawn)",
    "Assay Target": "human serotonin 5-HT2c receptor (Homo sapiens)",
    "Category": "1 (yes)"
  },
  {
    "Compound": "O=C1CC2CNCCN2c2cc(F)ccc2N1 (stereo not drawn)",
    "Assay Target": "human serotonin 5-HT2c receptor (Homo sapiens)",
    "Category": "0 (no)"
  },
  {
    "Compound": "O=C1CC2CNCCN2c2cc(Cl)ccc2N1 (stereo not drawn)",
    "Assay Target": "human serotonin 5-HT2c receptor (Homo sapiens)",
    "Category": "1 (yes)"
  },
  {
    "Compound": "COc1ccc2c(c1)N1CCNC[C@@H]1CC(=O)N2",
    "Assay Target": "human serotonin 5-HT2c receptor (Homo sapiens)",
    "Category": "0 (no)"
  },
  {
    "Compound": "O=C1CC2CNCCN2c2ccc(-c3ccc(Cl)cc3)cc2N1 (stereo not drawn)",
    "Assay Target": "human serotonin 5-HT2c receptor (Homo sapiens)",
    "Category": "0 (no)"
  },
  {
    "Compound": "O=C1C[C@H]2CNCCN2c2ccccc2N1",
    "Assay Target": "human serotonin 5-HT2c receptor (Homo sapiens)",
    "Category": "1 (yes)"
  },
  {
    "Compound": "O=C1CC2CNCCN2c2cc(Br)ccc2N1 (stereo not drawn)",
    "Assay Target": "human serotonin 5-HT2c receptor (Homo sapiens)",
    "Category": "1 (yes)"
  },
  {
    "Compound": "O=C1CC2CNCCN2c2cc(/C=C/c3cccc(Cl)c3)ccc2N1 (stereo not drawn)",
    "Assay Target": "human serotonin 5-HT2c receptor (Homo sapiens)",
    "Category": "1 (yes)"
  },
  {
    "Compound": "O=C1CC2CNCCN2c2cc(-c3ccccc3)ccc2N1 (stereo not drawn)",
    "Assay Target": "human serotonin 5-HT2c receptor (Homo sapiens)",
    "Category": "0 (no)"
  },
  {
    "Compound": "CCN1CCN2c3ccccc3NC(=O)CC2C1 (stereo not drawn)",
    "Assay Target": "human serotonin 5-HT2c receptor (Homo sapiens)",
    "Category": "0 (no)"
  },
  {
    "Compound": "O=C1CC2CNCCN2c2cc(Cl)c(Cl)cc2N1 (stereo not drawn)",
    "Assay Target": "human serotonin 5-HT2c receptor (Homo sapiens)",
    "Category": "1 (yes)"
  },
  {
    "Compound": "O=C1CC2CNCCN2c2cc(/C=C/c3cccc(F)c3)ccc2N1 (stereo not drawn)",
    "Assay Target": "human serotonin 5-HT2c receptor (Homo sapiens)",
    "Category": "1 (yes)"
  }
]
